Molecular target: F protein of respiratory syncytial virus (RSV-Long strain), on infectious virus (respiratory syncytial virus (RSV-Long …, UniProt P12568 26-574))
Test: cell-based or functional assay
parameter-measured: EC50 (nM), RSV microneutralization
Kindly answer with a numeric value in nM, unit omitted.

Field request: EC50 (nM), RSV microneutralization | item: MEDI-493 (clone 16), IgG1 (COR)/kappa (K102) humanized MAb (antibody, V domains shown) VH: QVTLRESGPALVKPTQTLTLTCTFSGFSLSTSGMSVGWIRQPPGKALEWLADIWWDDKKDYNPSLKSRLTISKDTSKNQVVLKVTNMDPADTATYYCARSMITNWYFDVWGAGTTVTVSS VL: DIQMTQSPSTLSASVGDRVTITCKCQLSVGYMHWYQQKPGKAPKLLIYDTSKLASGVPSRFSGSGSGTEFTLTISSLQPDDFATYYCFQGSGYPFTFGGGTKLEIK 6.12

What does the data say about its EC50 (nM), RSV microneutralization? Entry: Clone 12 (Fab) (Fab, V domains shown) VH: QVTLRESGPALVKPTQTLTLTCTFSGFSLSTAGMSVGWIRQPPGKALEWLADIWWDGKKHYNPSLKDRLTISKDTSKNQVVLKVTNMDPADTATYYCARDMIFNFYFDVWGQGTTVTVSS VL: DIQMTQSPSTLSASVGDRVTITCSLSSRVGYMHWYQQKPGKAPKLLIYDTFKLSSGVPSRFSGSGSGTEFTLTISSLQPDDFATYYCFQGSGYPFTFGGGTKVEIK 3.24

Which EC50 (nM), RSV microneutralization value belongs to Clone 17 (whole monoclonal antibody) (antibody, V domains shown) VH: QVTLRESGPALVKPTQTLTLTCTFSGFSLSTAGMSVGWIRQPPGKALEWLADIWWDDKKDYNPSLKSRLTISKDTSKNQVVLKVTNMDPADTATYYCARSMITNFYFDVWGAGTTVTVSS VL: DIQMTQSPSTLSASVGDRVTITCSASSSVGYMHWYQQKPGKAPKLLIYDTFKLASGVPSRFSGSGSGTEFTLTISSLQPDDFATYYCFQGSFYPFTFGGGTKLEIK ? 2.7
